# RUN_DESCRIPTION: Selectivity index, ratio of EC50 for cytotoxicity against rat H9C2 cells to EC50 for antitrypanosomal activity against Trypanosoma cruzi Y amastigotes infected in rat H9C2 cells
# Format: toxicity, cell-based
# TEST_PARAMETERS: read-out: Ratio EC50
Label Criterion not met if selectivity ratio falls below 2; label Criterion met in every other case.

Before answering, review these 4 worked examples.
cpd_smiles=C[C@]12CC[C@H](OS(C)(=O)=O)C[C@@H]1CC[C@@H]1[C@@H]2CC[C@]2(C)C(=O)[C@H](Br)C[C@@H]12 label_value="Criterion met"
cpd_smiles=CC(C)CO[C@H]1CC[C@@]2(C)[C@@H](CC[C@@H]3[C@@H]2CC[C@]2(C)C(=O)[C@H](Br)C[C@@H]32)C1 label_value="Criterion met"
cpd_smiles=C[C@]12CC[C@H](OCC(=O)N3CCOCC3)C[C@@H]1CC[C@@H]1[C@@H]2CC[C@]2(C)C(=O)[C@H](Br)C[C@@H]12 label_value="Criterion not met"
cpd_smiles=C[C@]12CCCC[C@@H]1CC[C@@H]1[C@@H]2CC[C@]2(C)C(=O)[C@H](Br)C[C@@H]12 label_value="Criterion met"

// next entry
Evaluate CC(=O)O[C@H]1CC[C@@]2(C)[C@@H](CC[C@@H]3[C@@H]2CC[C@]2(C)C(=O)[C@H](Br)C[C@@H]32)C1 : selectivity ratio at minimum 2?
Criterion not met
